The reported numbers originate from patent US20210395344A1.

TARGET_OR_TEST_SYSTEM: SARS-CoV-2 S1 (antigen of the Carterra SPR kinetics) (SARS-CoV-2, UniProt P0DTC2 16-685)
PROTOCOL_NOTES: Carterra SPR
READOUT_TYPE: koff (s⁻¹)
Unit s⁻¹ implied. Number only.

Check out these entries, answers already filled in.
1-28 (antibody, V domains shown, also called variant 1-28) VH: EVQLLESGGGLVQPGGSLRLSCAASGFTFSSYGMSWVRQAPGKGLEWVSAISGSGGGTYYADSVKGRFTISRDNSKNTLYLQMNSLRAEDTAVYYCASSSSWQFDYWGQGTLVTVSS VL: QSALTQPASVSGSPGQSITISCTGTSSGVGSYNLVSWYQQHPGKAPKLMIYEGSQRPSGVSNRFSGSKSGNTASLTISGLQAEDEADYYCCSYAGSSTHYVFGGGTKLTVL = 9.05
1-30 (antibody, V domains shown, also called variant 1-30) VH: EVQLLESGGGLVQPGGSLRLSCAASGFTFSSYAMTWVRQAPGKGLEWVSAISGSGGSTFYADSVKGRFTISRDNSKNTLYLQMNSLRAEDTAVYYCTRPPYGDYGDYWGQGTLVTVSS VL: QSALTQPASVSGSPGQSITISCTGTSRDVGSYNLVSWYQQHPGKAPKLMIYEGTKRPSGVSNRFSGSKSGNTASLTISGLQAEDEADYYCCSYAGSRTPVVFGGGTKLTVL = 0.00164

Exercise: Data request, read-out koff, for 1-29 (antibody, V domains shown, also called variant 1-29) VH: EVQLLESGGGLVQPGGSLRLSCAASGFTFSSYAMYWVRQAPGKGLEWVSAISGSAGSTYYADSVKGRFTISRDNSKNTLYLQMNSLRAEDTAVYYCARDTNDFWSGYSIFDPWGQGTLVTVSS VL: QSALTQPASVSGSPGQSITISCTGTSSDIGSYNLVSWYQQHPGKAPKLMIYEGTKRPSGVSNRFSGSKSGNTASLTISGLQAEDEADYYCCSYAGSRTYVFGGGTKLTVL
Key: 0.00197
